molecular target: human recombinant adrenergic α1D receptor (Homo sapiens, UniProt P25100); construct: expressed in transfected cells; host or cells: HEK-293 cells; assay: Adrenergic α1D radioligand binding ([3H]Prozosin); conditions: 1 h; read-out: Percent Inhibition of ligand binding Adrenergic (1 μM ligand conc.) α1D
Sequence (P25100 whole entry): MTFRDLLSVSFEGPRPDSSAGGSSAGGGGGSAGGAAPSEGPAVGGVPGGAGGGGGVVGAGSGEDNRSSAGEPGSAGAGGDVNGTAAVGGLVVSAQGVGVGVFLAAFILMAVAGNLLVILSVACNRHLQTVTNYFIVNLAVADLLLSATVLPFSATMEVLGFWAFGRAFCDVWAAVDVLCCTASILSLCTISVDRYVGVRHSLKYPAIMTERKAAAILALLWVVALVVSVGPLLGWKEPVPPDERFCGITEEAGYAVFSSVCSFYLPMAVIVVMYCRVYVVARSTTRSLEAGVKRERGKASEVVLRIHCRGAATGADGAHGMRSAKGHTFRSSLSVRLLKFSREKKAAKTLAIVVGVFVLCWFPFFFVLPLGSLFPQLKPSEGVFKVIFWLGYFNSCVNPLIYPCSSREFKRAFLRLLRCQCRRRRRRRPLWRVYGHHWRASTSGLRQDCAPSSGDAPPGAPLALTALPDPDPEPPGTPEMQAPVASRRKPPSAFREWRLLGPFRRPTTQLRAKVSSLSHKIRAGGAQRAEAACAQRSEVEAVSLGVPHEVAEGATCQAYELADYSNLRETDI
Label class 1 when inhibition at 1 µM is at or above 20%; otherwise label class 0.

Recorded results for 3 compounds are shown here.
C/C(=C\n1c2c(c3cc(C)ccc31)CCN(C)C2)c1ccc(Cl)cc1
class 1
CCC1c2c(c3cc(Cl)ccc3n2CC(C)(O)c2ccc(F)cc2)CCN1C (centres unmarked)
class 0
Cc1ccc2c(c1)c1c(n2CC(O)c2ccccc2F)CN(C)CC1 (centres unmarked)
class 1

Req: Kindly determine if inhibition at 1 µM recorded for CCC1c2c(c3cc(C)ccc3n2C#Cc2ccc(Cl)cc2)CCN1C (centres unmarked) is above or exactly 20%.
Resp: class 0

Req: Does the reported inhibition at 1 µM for C/C(=C/n1c2c(c3cc(Cl)ccc31)CCN(C)C2C)c1ccccc1F (centres unmarked) fall at or above the 20% mark?
Resp: class 1

Hello, the source for this data is patent US9260429B2, in case you need it.
